Provenance of the data: PubChem BioAssay (Tox21)

- Assay Comment: qHTS assay to identify small molecule antagonists of the estrogen related receptor signaling pathway with the pleiotropic PPARgamma coactivator (PGC) from Tox21 10K library - cell viability counter screen (AID 1224840); further: nearly all actives have a fitted effect of over 40% in size
- Measurement Parameters: PGC/ERR reporter cells viability, CellTiter-Fluor, 17.5 h; series mostly up to 92.4 µM
- Procedure: National Center for Advancing Translational Sciences [NCATS] NIH Chemical Genomics Center [NCGC] U.S. Environmental Protection Agency [EPA] National Institutes of Environmental Health Sciences [NIEHS] National Toxicology Program [NTP] […] The PGC/ERR cells were dispensed at 2,000 cells/5 ul/well in 1536-well white plates using a Multidrop dispenser. […] After 30-minute incubation at 37 C/5% CO2, the fluorescence intensity in the plates was measured using a ViewLux plate reader.
Inconclusive results are not listed. Calls of active or inactive are those of the source. The call rests on the fitted dose curve; in most records, active means well fitted cell-killing curve with a large enough effect in the repeat runs (not every such curve was filed as active); inconclusive means weak or mixed curves, or effect the other way; inactive means no such curve, though single readings can be large or run the other way.
Possible outcomes: class 1 for active, class 0 for inactive

1) CN1C(=O)c2ccccc2C1=O :: class 0
2) CC(C)Nc1cccnc1N1CCN(C(=O)c2cc3cc(NS(C)(=O)=O)ccc3[nH]2)CC1 :: class 0
3) Cc1ccc(C(C)(C)O)cc1 :: class 0
4) COC(=O)c1nc(Cl)c(Cl)nc1N :: class 1
5) CN1CCCN=C1COC(=O)C(O)(c1ccccc1)C1CCCCC1 (stereo not given) :: class 0
